- Tested on: SK-OV-3 ovarian
- testDescription: NCI tumour cell line growth inhibition, 48 h
experimentalReadout: TGI

Previously resolved entries follow.
compound=Nc1ccc(C(=O)N/C(=C\c2ccc3c(c2)OCO3)c2nc3ccc4c(c3[nH]2)C(=O)c2ccccc2C4=O)cc1 experimentalreadout=TGI observedvalue="79.7 µM"
compound="Clc1ccc(C2=NNC(c3cccc(Cl)c3)C2)cc1 (stereo not given)" experimentalreadout=TGI observedvalue="78.1 µM"
compound=COc1ccc2c(c1)/C(=N/OC(C)=O)c1c-2c(Nc2ccc(/C(C)=N/OC(C)=O)cc2)nc2ccccc12 experimentalreadout=TGI observedvalue="> 100 µM"

Req: What is its TGI for SK-OV-3 ovarian? Entry: O=[P+](O)c1cc2c3ccccc3ccc2c2ccccc12
Resp: > 100 µM

Req: Try this compound too: N#CSc1cc(-c2nc3ccccc3o2)ccc1N
Resp: > 100 µM

Req: Try this compound too: COc1ccc(Cn2nc(OCc3ccccc3)c3cc([N+](=O)[O-])ccc32)cc1
Resp: > 100 µM

Source listed as PubChem BioAssay (NCI).
